- subject of test: human ether-à-go-go-related gene (hERG) potassium channel (human)
- method description: primary screen, population patch clamp on CHO cells stably expressing hERG; higher = less effect of the substance;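 also: peak tail current of the secondary pulse compared with the same well before compound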
Screen size: about 310,000 compounds; about 14,000 (4.5%) showed an effect of 50% or more. The effect is printed as a negative number. This is one part of a sample in which strong results are shown more often than they occur.
attribute measured: hERG current change (%, negative = inhibition) at 10uM (%)
Kindly provide the numeric value in % only, without the unit symbol.

Problem: Reported hERG current change (%, negative = inhibition) at 10uM for `Cc1ccc(S(=O)(=O)NCCC(=O)Nc2cc(S(=O)(=O)N(C)C)ccc2C)cc1C` : what is it?
Solution: -7.95

Problem: Subsequent entry: `Cc1occc1-c1nnc(SCC(=O)N2CCN(c3ccc(F)cc3)CC2)n1C`
Solution: -58.5

Problem: Subsequent entry: `COc1ccc(OCC(=O)N2CCN(C(=O)c3ccc([N+](=O)[O-])cc3)CC2)cc1`
Solution: -67.2

Problem: Subsequent entry: `CC(=O)c1ccc(Oc2cc(C)nc(-n3nc(C)cc3C)n2)cc1`
Solution: -59.9

Problem: Subsequent entry: CCCNC(=O)C1(CC2CC(c3ccccc3)=NO2)CCNCC1 (stereo not shown)
Solution: 23.5

Problem: Subsequent entry: `CC(=O)c1ccc(Oc2cc(C)nc(N3CCOCC3)n2)cc1`
Solution: -13.3

Problem: Subsequent entry: `O=C(COc1ccccc1)N1CCN(C(=O)c2ccc([N+](=O)[O-])cc2)CC1`
Solution: -62.4

Problem: Subsequent entry: `COc1ccc(OCC(=O)N2CCN(C(=O)c3ccc(F)cc3)CC2)cc1`
Solution: -20.2

Problem: Subsequent entry: CCC(C)c1ccccc1N1CC(C(=O)Nc2ccc(S(=O)(=O)N3CCOCC3)cc2)CC1=O (stereo not shown)
Solution: -9.78

Problem: Subsequent entry: CCCCCCCNC(=O)C1(CC2CC(c3cccc(Br)c3)=NO2)CCN(C(=O)Cc2ccc(F)cc2)CC1 (stereo not shown)
Solution: -7.08

Problem: Subsequent entry: CCCCCCCNC(=O)C1(CC2CC(c3cccc(Br)c3)=NO2)CCN(C(=O)C2(C)CC2)CC1 (stereo not shown)
Solution: -26

Problem: Subsequent entry: `CCOC(=O)C1(CCCc2ccccc2)CCN(C(=O)CCc2cnccn2)CC1`
Solution: -66.4

Problem: Subsequent entry: `Cc1nn(C)c(C)c1CNC(=O)Nc1ccc2c(c1)OCO2`
Solution: 12

----------
- subject of test: human ether-à-go-go-related gene (hERG) potassium channel (human)
- method description: primary screen, population patch clamp on CHO cells stably expressing hERG; higher = less effect of the substance
- Description: Briefly, Chinese hamster ovary (CHO) cells stably expressing the hERG channel were dislodged from tissue culture flasks and dispensed into PPC plates. […] During the recording, background leak currents were estimated by a 100 ms step to -80 mV from an initial holding potential of -70 mV and subtracted from the subsequent current measurement. The campaign was conducted in two phases using slight differences in recording protocol. […]
Out of some 310,000 compounds screened, about 14,000 (4.5%) showed an effect of 50% or more. Effects have a minus sign here. Only a selection was taken, and strong results are over-represented in it overall.
Please respond with reported hERG current change (%, negative = inhibition) at 10uM for every item in the list.
Your answer should be a number followed by the unit of measure.

Problem: Reported hERG current change (%, negative = inhibition) at 10uM for `O=C(CSc1nnc(Cc2cccs2)n1Cc1ccco1)Nc1ccc(Cl)cc1Cl` : what is it?
Solution: -57.1%

Problem: Subsequent entry: O=C(NCCc1cccc(F)c1)C1CCCN(c2nc3ccccc3s2)C1 (stereo not shown)
Solution: 7.76%

Problem: Subsequent entry: `c1ccc(SCCN2CCc3ccccc3C2)cc1`
Solution: -19.3%

Problem: Subsequent entry: `Cc1cc(C)c(NC(=O)CSc2nnc(-c3ccncc3)n2Cc2ccco2)c(C)c1`
Solution: -31.6%

----------
- subject of test: human ether-à-go-go-related gene (hERG) potassium channel (human, UniProt Q12809)
- Sequence (Q12809 whole entry, looked up): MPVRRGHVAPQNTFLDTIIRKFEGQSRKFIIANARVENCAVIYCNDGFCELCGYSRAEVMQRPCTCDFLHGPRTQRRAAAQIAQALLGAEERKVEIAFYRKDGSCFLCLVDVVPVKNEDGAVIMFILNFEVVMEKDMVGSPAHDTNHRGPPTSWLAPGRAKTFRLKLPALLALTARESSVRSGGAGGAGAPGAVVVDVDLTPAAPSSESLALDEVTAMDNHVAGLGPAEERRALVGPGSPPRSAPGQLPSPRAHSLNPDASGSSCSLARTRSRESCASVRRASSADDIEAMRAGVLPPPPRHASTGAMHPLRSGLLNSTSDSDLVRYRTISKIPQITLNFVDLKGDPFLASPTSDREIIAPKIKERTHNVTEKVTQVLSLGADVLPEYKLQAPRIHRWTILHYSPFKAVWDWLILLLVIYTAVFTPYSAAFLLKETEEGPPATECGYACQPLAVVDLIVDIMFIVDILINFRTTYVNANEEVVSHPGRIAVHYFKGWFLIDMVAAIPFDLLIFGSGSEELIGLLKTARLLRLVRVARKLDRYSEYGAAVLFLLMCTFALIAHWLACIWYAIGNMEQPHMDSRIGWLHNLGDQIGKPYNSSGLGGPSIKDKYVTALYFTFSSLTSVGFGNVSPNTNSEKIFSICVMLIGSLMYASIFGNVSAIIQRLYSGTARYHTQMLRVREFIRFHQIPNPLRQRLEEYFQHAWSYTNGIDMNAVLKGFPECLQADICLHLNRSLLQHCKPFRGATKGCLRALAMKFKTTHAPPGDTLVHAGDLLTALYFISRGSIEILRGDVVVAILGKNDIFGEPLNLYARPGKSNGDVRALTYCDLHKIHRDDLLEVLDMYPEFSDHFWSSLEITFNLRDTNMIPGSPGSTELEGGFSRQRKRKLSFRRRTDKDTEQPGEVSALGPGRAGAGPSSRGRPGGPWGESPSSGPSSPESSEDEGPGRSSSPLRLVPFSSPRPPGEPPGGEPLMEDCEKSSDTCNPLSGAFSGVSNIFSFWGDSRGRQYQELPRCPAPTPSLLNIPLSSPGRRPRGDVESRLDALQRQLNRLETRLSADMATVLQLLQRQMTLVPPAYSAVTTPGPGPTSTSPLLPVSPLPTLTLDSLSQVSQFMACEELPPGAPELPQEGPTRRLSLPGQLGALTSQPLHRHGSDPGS
- method description: primary screen, population patch clamp on CHO cells stably expressing hERG; higher = less effect of the substance
In all, about 310,000 compounds went through this assay and about 14,000 (4.5%) showed an effect of 50% or more. The effect is printed as a negative number. What follows is part of a selection rich in strong results, with near analogues and random picks from the rest.
Please respond with reported hERG current change (%, negative = inhibition) at 10uM for every item in the list.

Problem: Reported hERG current change (%, negative = inhibition) at 10uM for `O=C(Nc1cc(-c2nc3ccccc3s2)ccc1Cl)c1ccc2c(c1)OCO2` : what is it?
Solution: 7.51%

Problem: Subsequent entry: `CS(=O)(=O)c1ccc([C@@H](O)[C@@H](CF)NC(=O)C(Cl)Cl)cc1`
Solution: -5.39%

Problem: Subsequent entry: O=C(NCc1ccccc1F)C1CCCN(c2cnccn2)C1 (stereo not drawn)
Solution: 13.4%

Problem: Subsequent entry: `Nc1ccccc1SCC(=O)Nc1ccc2c(c1)OCCO2`
Solution: 3.12%

Problem: Subsequent entry: `CCOc1ccc(NC(=S)N(CCOC)C2CCN(C(C)C)CC2)cc1`
Solution: -29%

Problem: Subsequent entry: `Cc1cccc(OCC(=O)N2CCN(C(=O)c3cccs3)CC2)c1`
Solution: -7.23%

Problem: Subsequent entry: `O=C1N/C(=C\c2ccc(O)cc2)C(=O)c2ccccc21`
Solution: -1.53%

Problem: Subsequent entry: `CCN1CCN(c2c(Cl)cccc2NC(=O)c2ccc3c(c2)OCCO3)CC1`
Solution: -38.4%

Problem: Subsequent entry: `O=c1[nH]c2c(c(=O)[nH]1)CCC2`
Solution: 17.7%

Problem: Subsequent entry: `COc1cnn(-c2ccc(Br)cc2)c(=O)c1SCc1ccccc1`
Solution: -65.6%

Problem: Subsequent entry: CCC(CC)N1CCN(CCc2ccccc2)C(CCO)C1 (stereo not drawn)
Solution: -19%

Problem: Subsequent entry: `CCN1CCN(c2c(Cl)cccc2NC(=O)c2ccc([N+](=O)[O-])cc2)CC1`
Solution: -72%

Problem: Subsequent entry: `COc1cnn(-c2ccccc2)c(=O)c1SCc1ccc(Cl)c(Cl)c1`
Solution: -21.1%

Problem: Subsequent entry: `CN(CC(=O)Nc1ccccc1Cl)C(=O)CSc1nnc(-c2ccco2)o1`
Solution: -7.79%

Problem: Subsequent entry: `Cc1ccc(Oc2cc(NN3CCCCC3)c([N+](=O)[O-])cc2[N+](=O)[O-])c([N+](=O)[O-])c1`
Solution: -10.3%

Problem: Subsequent entry: CC1(c2ccccc2)NC(=O)N(CC(=O)N2CCOCC2)C1=O (stereo not drawn)
Solution: 3.77%

Problem: Subsequent entry: CC12CCC(=O)N1C(C(=O)N1CCN(c3cccc(Cl)c3)CC1)CS2 (stereo not drawn)
Solution: -19.4%

Problem: Subsequent entry: `Cc1ccc(OCC(=O)N2CCN(C(=O)c3cccc(F)c3)CC2)cc1`
Solution: -13.3%

Problem: Subsequent entry: CCC(C)(C)NC(=O)C(OC(=O)c1ccco1)c1ccccc1F (stereo not drawn)
Solution: 13.4%

Problem: Subsequent entry: CCCCOP(=O)(c1ccc(N(C)C)cc1)C(O)c1ccc(OC)cc1 (stereo not drawn)
Solution: -2.61%

Problem: Subsequent entry: CC(=O)O.Cc1ccc(C2C(C(=O)c3cccs3)=C(O)C(=O)N2c2ccc(S(N)(=O)=O)cc2)cc1 (stereo not drawn)
Solution: 16.5%

Problem: Subsequent entry: `Cc1ccc(OCC(=O)N2CCN(C(=O)c3ccc([N+](=O)[O-])cc3)CC2)cc1`
Solution: -83.4%

Problem: Subsequent entry: `CCN1CCN(c2c(Cl)cccc2NC(=O)c2ccc3nsnc3c2)CC1`
Solution: -49.5%

Problem: Subsequent entry: `FC(F)Oc1ccc(NC(=S)N2CCN(Cc3ccccc3)CC2)cc1`
Solution: -56%

Problem: Subsequent entry: `COc1ccc(NC(=S)N2CCN(Cc3ccccc3)CC2)cc1`
Solution: 0.401%

Problem: Subsequent entry: Cc1ccc(NC(=S)N2CCn3cccc3C2c2cccnc2)cc1 (stereo not drawn)
Solution: -37.3%

Problem: Subsequent entry: CC1CN(c2ccc([N+](=O)[O-])cc2C(=O)N2CCOCC2)CC(C)N1 (stereo not drawn)
Solution: -9.17%

Problem: Subsequent entry: `CC1(C)C=C2[C@H]3CC[C@@H]4[C@@]5(C)CCC(=O)C(C)(C)[C@@H]5CC[C@@]4(C)[C@]3(C)CC[C@@]2(C(=O)O)CC1`
Solution: -1.05%

Problem: Subsequent entry: `CC(C)CC(=O)CN1C(=O)C2(OCCO2)c2ccccc21`
Solution: 13.2%

Problem: Subsequent entry: CSCCC(NC(=O)c1ccc(Cl)cc1Cl)C(=O)OC1CCCCC1=O (stereo not drawn)
Solution: -26.7%

Problem: Subsequent entry: `Cc1nnsc1C(=O)NNS(=O)(=O)c1ccccc1`
Solution: 8.81%

Problem: Subsequent entry: O=C1CC(=O)C(n2cncn2)C(c2ccc(Cl)cc2Cl)C1 (stereo not drawn)
Solution: 7.83%

Problem: Subsequent entry: `O=C(COc1ccc2ccccc2c1)N1CCN(c2ccccc2)CC1`
Solution: 11.7%

Problem: Subsequent entry: COC(=O)C1=C(C)N(C)C(=O)NC1c1ccccc1 (stereo not drawn)
Solution: -5.95%

Problem: Subsequent entry: `COc1ccc(CN(C)C(=O)C23CC4CC(CC(C4)C2)C3)c(OC)c1`
Solution: -25%

Problem: Subsequent entry: `O=C(COc1ccc2ccccc2c1)N1CCN(C(=O)c2ccc([N+](=O)[O-])cc2)CC1`
Solution: -76.5%

The reported measurements were obtained from paper PMC4336329.
